- System: RPMI-8226 leukemia
- Run description: NCI tumour cell line growth inhibition, 48 h; in the data active = GI50 below about 0.43 µM; inactive = the rest
Classes used: class 1 for active, class 0 for inactive

>>> df
                                        smi  class_assignment
0  CC(=O)[CH-]C(=O)c1ccccc1.CC(=O)[CH-]C(=O)c1ccccc1.CC1(C)C2CCC1(C)C([O-])C2.CC1(C)C2CCC1(C)C([O-])C2.[Ti+4]           class 0
1  O=C1c2cc3c(cc2-c2c1c1ccc(Cl)cc1c(=O)n2CCCNCCO)OCO3           class 1
2  O=C(CNc1ccc2c(c1)C(=O)c1ccccc1C2=O)Nc1ccc2c(c1)C(=O)c1ccccc1C2=O           class 0

----------
- Test system: MCF7 breast
- Run description: NCI tumour cell line growth inhibition, 48 h
Readout kind: TGI

Compound	Endpoint value
CC(=O)OC(C)C1C2=C(C(=O)CC1(C)O)C(=O)c1c(ccc(-c3ccc4c(c3O)C(=O)C3=C(C4=O)C(C(C)OC(C)=O)C(C)(O)CC3=O)c1O)C2=O (stereo not given)	4.06 µM
O=C1C(=O)c2ccccc2C(O)=C1CC=C(Br)Br	> 100 µM
CC(C)(C)c1cc(-c2cc(C(C)(C)C)n(-c3ccccc3)n2)nn1-c1ccccc1	> 100 µM
NC(N)=N/N=C\c1cccc(OCc2ccccc2)c1	3.75 µM
O=C(CNc1ccc2c(c1)C(=O)c1ccccc1C2=O)Nc1ccc2c(c1)C(=O)c1ccccc1C2=O	2.6 µM
CC1(C)O[C@@H]2[C@@H](COC(=O)c3ccccc3)C[C@@H](C#N)[C@@H]2O1	> 100 µM
O=C1CCCCCCCC/C=C\CC(c2ccco2)O1 (stereo not given)	> 100 µM
CC(=O)[C@@]1(O)CC[C@H]2[C@@H]3C[C@H](C)C4=CC(=O)CC[C@]4(C)[C@H]3[C@@H](O)C[C@@]21C	> 100 µM
c1ccc2c(c1)nc1n2CCCn2ccnc2-1	> 100 µM
COC(=O)C1=C(C(=O)ON)C2C=CC1(C(Cc1ccccc1)Nc1ccccc1)O2 (stereo not given)	6.59 µM
CCN1CCN(c2ccc(Nc3ccnc4ccc5c(nnn5C)c34)cc2)CC1	14.8 µM
CCOC(=O)c1[nH]c(Br)c(-c2ccc(Br)cc2)c1Br	> 100 µM
C=C(CN1C(=O)[C@H]2CCCN2C(=O)c2ccccc21)c1ccc(C(=O)O)cc1	> 100 µM
c1ccc(Cc2nc(Cc3n[nH]c(Cc4ccccc4)n3)n[nH]2)cc1	> 100 µM
COc1c(OC)c(OC)c2c(c1OC)c(=O)c1ccccc1n2C	> 100 µM
c1ccc(N=C(Nc2ccccc2)N2CCCCC2)cc1	> 100 µM
CC(C)=CCNc1ncnc2nc[nH]c12	> 100 µM
COC(=O)c1ccccc1C1CN=NC12Cc1ccc(C)c(C)c1C2=O (stereo not given)	> 100 µM
Cc1cc2nc3c4cc(N)ccc4n(CCN(C)C)c3nc2cc1C	7.96 µM
NC(=S)N/N=C(\Cc1nc2ccc(Cl)cc2[nH]c1=O)C(=O)Nc1ccc(Cl)cc1	> 100 µM
Cc1nc2sc3ccccc3n2c(=O)c1N=Nc1ccc(Br)cc1	> 100 µM
Nc1c2c(=O)[nH]c(=O)c2c(N)c2c(=O)c3ccccc3c(=O)c12	2.72 µM
COc1ccc(C2CC(c3ccccc3)=Nc3c(-c4ccccc4)nnn32)cc1 (stereo not given)	> 100 µM
CCOC(=O)C(/C=N\C(=S)Nc1ccc(Cl)c(Cl)c1)=C(/O)c1ccccc1	> 100 µM
FC(F)(Sc1ccccn1)c1nc2ccccc2o1	> 100 µM
